# study-target: efl-2 (Y48C3A.17) (Caenorhabditis elegans) (UniProt A5HWA8)
# Sequence: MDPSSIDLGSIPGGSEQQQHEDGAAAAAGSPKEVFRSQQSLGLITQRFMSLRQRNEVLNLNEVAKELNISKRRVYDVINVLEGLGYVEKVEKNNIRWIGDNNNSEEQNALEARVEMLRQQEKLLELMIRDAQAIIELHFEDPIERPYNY
As shown below, each of these sequences has a reported binding signal (PBM E-score (-0.5 to 0.5)) value.
readout-label: binding signal (PBM E-score (-0.5 to 0.5))

>>> print(df.to_string())
                                         seq  quantitative_readout
 0  TGGCGCCA (double strand) [8-mer TGGCGCCA]                 0.492
 1  GCGCGCAC (double strand) [8-mer GCGCGCAC]                 0.487
 2  ATGCGCGC (double strand) [8-mer ATGCGCGC]                 0.485
 3  GGCGCCAA (double strand) [8-mer GGCGCCAA]                 0.488
 4  ACGCGCGC (double strand) [8-mer ACGCGCGC]                  0.49
 5  CGCGCGCA (double strand) [8-mer CGCGCGCA]                 0.491
 6  CGCGCGCC (double strand) [8-mer CGCGCGCC]                 0.488
 7  CGCGCGCG (double strand) [8-mer CGCGCGCG]                 0.494
 8  GCGCGCCA (double strand) [8-mer GCGCGCCA]                  0.49
 9  GAGCGCGC (double strand) [8-mer GAGCGCGC]                 0.486
10  AGCGCGCC (double strand) [8-mer AGCGCGCC]                 0.488
11  GCGCGCGC (double strand) [8-mer GCGCGCGC]                 0.495
12  AGGCGCGC (double strand) [8-mer AGGCGCGC]                 0.487
13  GCGCGCGA (double strand) [8-mer GCGCGCGA]                 0.485
14  ACCCGCGC (double strand) [8-mer ACCCGCGC]                 0.486

----------
# study-target: nhr-42 (C33G8.6) (Caenorhabditis elegans)
# Sequence: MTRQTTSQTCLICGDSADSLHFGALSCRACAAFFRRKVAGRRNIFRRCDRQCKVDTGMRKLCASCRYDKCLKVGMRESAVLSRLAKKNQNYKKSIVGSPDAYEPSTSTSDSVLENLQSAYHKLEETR
readout-label: binding signal (PBM E-score (-0.5 to 0.5))

In [3]: df
Out[3]:
                                        seq  quantitative_readout
0  AAGTCACA (double strand) [8-mer AAGTCACA]                 0.494
1  AGTCACAC (double strand) [8-mer AGTCACAC]                 0.489
2  ACACTACG (double strand) [8-mer ACACTACG]                 0.493
3  GTCACAAA (double strand) [8-mer GTCACAAA]                  0.48
4  ACTACGAA (double strand) [8-mer ACTACGAA]                 0.486
5  GACTACGC (double strand) [8-mer GACTACGC]                 0.484

Origin of values: paper PMC4434323
